Test Details: soluble fraction after stress (log2 fold change); higher = more stays soluble; pooled small domains, quantitative proteomics;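 also: 20 min heating vs room temperature control held 20 min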
Test Settings: stress: 75 degC
In this section, each of the sequences is paired with its reported soluble fraction (log2).
Attribute Measured: soluble fraction (log2)

Sequence String	Attribute Measured	Observed
HMPLQYRLTVQPTPTNARVRLVNSAFTYRPGVALPPGSYIVEVSSSGYGAKRQAVQIADGDVTVPVELEKI	soluble fraction (log2)	-0.582
HMTDTDVLSSRLSALSSGRTSAVRLRDGVLSLVLDVGGLSIEARKAMTTAIESTARATPGVEAVRIAET	soluble fraction (log2)	-0.479
HMGSLPPPKDGTTIYVVKPGDSLWRISGKFFGNPLFWPRLWEINPNIDNPNKIYPGDVISLKP	soluble fraction (log2)	0.24
HMDDEDLAFLQREFVSYQQAMDYYGLGYKPVVRLSHISGSVYKIGKKVLIRRNIFEEYLRNHV	soluble fraction (log2)	0.0397

* * *

Test Details: soluble fraction after stress (log2 fold change); higher = more stays soluble; pooled small domains, quantitative proteomics
Test Settings: stress: 75 degC
Attribute Measured: soluble fraction (log2)

Sequence String	Censor Symbol	Observed
HMITNSTEIEAMIDSLIKENPEQAEQYRNGNTKVVGWFVGQMMKASKGKANPQVVGDLLAQKLVG	=	0.0621
HMKQENRLKILRKEKGLTQTKLANEIGVSKRTIIAWENDERQIKPDKAQQLADYFGVKEGYLLGYTNN	=	0.114
HMAVSPEEQKKRIIELFRNRNEVSFKEIFDLPTKGHFVITLLAVLDLARQQIVIMEQLENEGIIKFTKGA	=	0.134
HMKMLSIQRREAIRALLLEKESITIAEVMEKFQISVETARRDFDALADEGFLNKVYGGATLKK	=	-1.68
HMGGNDALEIAKSNPQVIEVLGEPVTKDGMGSYSVNYKNGHKTSEATIPIEGPNGTATLHVKTSGSDDAL	=	0.237
HMEQVQQIPIEELFPFKEHPFKVLDDEAMQRTVESVAQYGVLAPLIARPRPEGGYEIISGHRRQHAAELYR	=	-0.0469
HMTANTQVENIRLELQRYMDEHGISQVTVARGIGKTHPVISQFLNNKYPGDVEEVARAIESWLTKQHEKAA	=	-0.128
HMNQKTQMTKQILAESLKKLMLHHSFEKITIKDITDAAGFIRPTFYNHFKDKYDLVEWIFTEEI	=	-0.287
HMAQFNELLFELRQDRKMTQEDLAKVLFVTSGTISNYENGVHLPDIEKLISLADFFGVTTDYLLG	=	-0.189
HMRALPFSFANRHGVLIREISDGVAHAVYRIGSSPLGLAEARRFVGMPLMLTPVAREAFDSLLQQTYEQG	=	-2.39
HMTVDAVALGRRVRHLRKQAGLTLDQLAERTGVSGSHLSLVENARREPRLSLVQRIAEVLGVPVEDL	=	-1.49
HMATESYYVLKADVPAKTLVTQEMVEEIKVSKGGAPVNSIKIDNIKEKGVYTSIPLLKGDVLSASNTG	=	0.131
HMPVFYVTGNRVNFRAGPSTGDRVIGSLSQGAAVEVLGPTDDAWINIRDSDGRVGYMSAQFLSQ	=	0.355
HMELDFNSVYRQLNHEQKQAYQSIKSVLEQKISGSELDKKLKQAQQAFVAKFKENPNFEVPK	=	0.608
HMVAGPDEPLSDREQGVLDLLAEGLSNKAISKQLGISVATVKSHLSNIYGKLQAENRMQAVARARELGLM	≥	1.04
HMKPDWLSDGRLIPDEVMSHLRKIAVHAVEEMGYSPEDVIKILGLSRNTIYDWLKRFREHGYEGLDTKK	=	-0.957
HMSADKAEAAEASLKSFNLRLQAAAMEAGKTFAPVTADQYAEYKAAWGTYIRKGIEGLSESEKKTINVG	=	-0.243
HMQYTTDEVRERVLSVLNQLLLRWIVREGKDMFNIQANAVEISEGIKGELNTELEKIGLAATGFQIDSV	=	-0.393
HMNVEATAETLLALLKKNGGSLPFGDKSDPEAIQSQLKMSKKTFKKAAGTLFKKKLVRIEDHGIFL	=	-2.02
HMRNMTDYLTIVRAVYGGLSQRQAATTYHVSRNTVSLLIRHAKNQGWLTVEDLSRADAAAFSPA	=	-0.393
HMNANTILNSQRILTQLGFNPGPIDGAFGAKTKGALNAFYTSIGKSYDGLLDSNELVELQKALDVSGLKN	=	-0.524
HMVQVHEWTNKAGRTIKAKFVRGDAQSVTIFLGGRNFVLKIADLSEESQALARKLSAPPPPP	=	-2.52
HMQTKNYVYFNNTENWSTVNVYVWSSKDSTYMSWPGKAMESIGNNTYRFELPNGAEYAIFNNGSAQTVD	=	-0.335
HMDSIQMKNNSILYYGNTAGYLDAKRNTAVVDPMFRTDEMESYLSEQKGLSVEWASGTYDRLT	=	0.0501
HMNVVINNELVSLMVEAMKDGVSSKSIQEEFEGYKISGKTITKKVLTAHVNKALEVFADMQE	=	-0.582
HMVTVQEGETLSAIAARSGVSVKDLVRANEIRNPDSIQEGQVLFVP	=	0.115
HMAQASEPMLALIRLKWWEEQINSPVKGDSLPLLSQLNSHISAGYLSRSQVTSLIQRWQDYA	=	-0.983
HMDKFTYVVKKEDEQYQIKDILRHNFTFSSRLRKKLKQNNSIFLNGAETVGWATPKEGDIISVRLP	=	-0.883
HMQTAAANPSPESILQAREAAGLSQSEAGALIYSGLRSWQHWEWGTRRMHPGLFELFLKKTGQI	=	-1.83
HMDRWTPLVVAVLSRGSHRFGELRAAIGGITPKVLTDTLRSMERDGLITRDQAPGVPPRVDYALTPLGS	=	-1.43
HMKITININIETLSHHIKQSGVPLGRLQESVPDYNEIVTGNKSPTYQQLEKISKLIRVPLGLLVIESPL	=	0.039
HMSTDNINYKNILIASLLIHAAKIDENYTENEKNIIKKALIELDEIDSKKADEIMILAEKKE	=	-0.265
HMEMELNHVARRAGRLSGFLKGELRLSTGLMNRLKWSNAILVNGKPARTNAQVEPGDRITVILD	=	-2.35
HMSNTVEDLIDDIGTVTKDSKDKIDAARKAYDGLTEDQKKLVPDSVLKTLTDAEAAYAKLTK	=	0.567

* * *

In this section, each of the sequences is paired with its reported soluble fraction (log2).
Test Details: soluble fraction after stress (log2 fold change); higher = more stays soluble; pooled small domains, quantitative proteomics
Test Settings: stress: 75 degC
Attribute Measured: soluble fraction (log2)

Sequence String	Attribute Measured	Observed
HMNMGKRFKELRKERKFTQQQLADRIGLAPSAISSYESGARYPSYDVLIKYSKIFHVTTDYLLG	soluble fraction (log2)	-2.79
HMVSKTEAMAVFIADKLQEGMVPANEILELYKGMQLSDRTIRNAKKQLGIVSIRKDGQWYWSL	soluble fraction (log2)	-1.05
HMDMSVDQFNQGIRGSELYQQFIHGRGLQQPDGKTREWTDADRNAWRRTLEASGVRIPDGMKIDNAGNLNE	soluble fraction (log2)	0.375
HMIKRNPLDEIEGVGPGRKKALLHAFGSAKGVSRASVVDLVKVEGVSQALAERIHDFFHPATR	soluble fraction (log2)	-0.299
HMEYSKSIKRLREDKNLTVEELAKRLSLDVEEIQKAEDGEDVDQKTLEAIARYFGVQYDSLVEGTAKSK	soluble fraction (log2)	-0.0335
HMGGEEINMINLVGLSQSEAENQLAKLKLKIGQVTAEYSDKPSGTVLKQSISANNKVKKGADIDIVVSKG	soluble fraction (log2)	-0.0126
HMVFLPDEIFRLKVIKAGEGPEQGVGYLDDGTMVVIEGARDRIGDELEVRVTSTLQTNAGKMIFTKFE	soluble fraction (log2)	-0.548
HMLAAGTPLTVVTESSNLNIRQEPSTEAAVVGKAAKGEIVTLVEQTSGEWWKVSTKDGEEGYAYSRYL	soluble fraction (log2)	0.678
HMRDSYTFEDIEKLKDSYLQDSEKALEKLISIYEDTNQSLAIRTAALDIITDSQDPTFKLALEKIIS	soluble fraction (log2)	-0.177
HMKDTNENLMKMLALLIHAAKIDENYSDEEKELIVNFAEMSSKENLNREQILSIIKSAEEYE	soluble fraction (log2)	-1.24
HMHLTRYQYKVETEQEAVGLKELSSVHDLQIKENEATFQADSDAIDEILKTLLLYGVKKLEATPPTLED	soluble fraction (log2)	-0.211
HMIHFDHPERSILDTMLYEKKGMTAQSARNRLAAYQFQGEDVFKPVSVLSGGELSRITLAIKNAMADK	soluble fraction (log2)	-0.36
HMRNGGHTVYRNNGSLFIVVRDGDKLESVASEFRVSPKKLIKYNDLDIHSNVKTGDMIYIRPKA	soluble fraction (log2)	-0.423
HMKVEFDAMDKRILELMAKEYDTVLMARHLPLTPIVIDVRKKRIREVLNLPDATDAEIVIEAKEKDII	soluble fraction (log2)	-1.08
HMQQDGSSSLGENMLNQELQARGVVPSEIPQEVWERVIQEAGKKSKREIYADIGLGRSLAAGFAQRLAA	soluble fraction (log2)	0.145
HMTEALEFTVEDLRMAGLVNSSFSRRRRELFSEKLGIGYGNGKSLLKKLNGYGITREEFNGAIQSLSD	soluble fraction (log2)	-0.817
HMSQISKLWRPSEDVTEILTRSGMDSEFLEGLIPEFIIYWSERADVLVSYNSKFIEHARLKWAQHSAEIKT	soluble fraction (log2)	-4.48

The measurements presented in this section are drawn from the domain aggregation screens of Martell et al. (2025).
